assay: molar heat capacity at constant pressure; conditions: 298.15 K; 12000 kPa; Liquid; Small sample (50 mg) DSC
Numbers after ± are expanded uncertainties.
Experimental Endpoint: molar heat capacity at constant pressure

[[record]]
compound = "CCn1cc[n+](C)c1.F[B-](F)(F)F [1-ethyl-3-methylimidazolium tetrafluoroborate]"
experimental_endpoint = "molar heat capacity at constant pressure"
endpoint_result = "305.05 ± 4.7 J/K/mol"

[[record]]
compound = "CCCCCCn1cc[n+](C)c1.F[B-](F)(F)F [1-hexyl-3-methylimidazolium tetrafluoroborate]"
experimental_endpoint = "molar heat capacity at constant pressure"
endpoint_result = "430.03 ± 6.7 J/K/mol"

[[record]]
compound = "CCCCCCCC[n+]1ccn(C)c1.F[B-](F)(F)F [1-methyl-3-octylimidazolium tetrafluoroborate]"
experimental_endpoint = "molar heat capacity at constant pressure"
endpoint_result = "500.23 ± 7.8 J/K/mol"

[[record]]
compound = "CCCCn1cc[n+](C)c1.F[B-](F)(F)F [1-butyl-3-methylimidazolium tetrafluoroborate]"
experimental_endpoint = "molar heat capacity at constant pressure"
endpoint_result = "366.3 ± 5.7 J/K/mol"


* * *

This listing pairs molecules with measured molar heat capacity at constant pressure.
experiment: molar heat capacity at constant pressure; conditions: 313.15 K; 100 kPa; Liquid; Small sample (50 mg) DSC
± gives the expanded uncertainty stated by the source.
Experimental Endpoint: molar heat capacity at constant pressure

[[record]]
molecule = "CCn1cc[n+](C)c1.F[B-](F)(F)F [1-ethyl-3-methylimidazolium tetrafluoroborate]"
endpoint_result = "310.23 ± 4.8 J/K/mol"

[[record]]
molecule = "CCCCn1cc[n+](C)c1.F[B-](F)(F)F [1-butyl-3-methylimidazolium tetrafluoroborate]"
endpoint_result = "372.67 ± 5.8 J/K/mol"

[[record]]
molecule = "CCCCCCn1cc[n+](C)c1.F[B-](F)(F)F [1-hexyl-3-methylimidazolium tetrafluoroborate]"
endpoint_result = "437.81 ± 6.8 J/K/mol"

[[record]]
molecule = "CCCCCCCC[n+]1ccn(C)c1.F[B-](F)(F)F [1-methyl-3-octylimidazolium tetrafluoroborate]"
endpoint_result = "509.38 ± 7.9 J/K/mol"


* * *

Reported values of molar heat capacity at constant pressure for individual entries
test: molar heat capacity at constant pressure; conditions: 308.15 K; 40000 kPa; Liquid; Small sample (50 mg) DSC
Experimental Endpoint: molar heat capacity at constant pressure (J/K/mol)

[[record]]
compound = "CCCCCCn1cc[n+](C)c1.F[B-](F)(F)F [1-hexyl-3-methylimidazolium tetrafluoroborate]"
experimental_endpoint = "molar heat capacity at constant pressure"
endpoint_result = 435.72

[[record]]
compound = "CCCCCCCC[n+]1ccn(C)c1.F[B-](F)(F)F [1-methyl-3-octylimidazolium tetrafluoroborate]"
experimental_endpoint = "molar heat capacity at constant pressure"
endpoint_result = 506.47

[[record]]
compound = "CCCCn1cc[n+](C)c1.F[B-](F)(F)F [1-butyl-3-methylimidazolium tetrafluoroborate]"
experimental_endpoint = "molar heat capacity at constant pressure"
endpoint_result = 370.77

[[record]]
compound = "CCn1cc[n+](C)c1.F[B-](F)(F)F [1-ethyl-3-methylimidazolium tetrafluoroborate]"
experimental_endpoint = "molar heat capacity at constant pressure"
endpoint_result = 309


* * *

Recorded molar heat capacity at constant pressure values for a group of compounds are listed next.
assay: molar heat capacity at constant pressure; settings: 313.15 K; 40000 kPa; Liquid; Small sample (50 mg) DSC
± gives the expanded uncertainty stated by the source.
Experimental Endpoint: molar heat capacity at constant pressure

[[record]]
compound = "CCCCCCCC[n+]1ccn(C)c1.F[B-](F)(F)F [1-methyl-3-octylimidazolium tetrafluoroborate]"
endpoint_result = "509.32 ± 7.9 J/K/mol"

[[record]]
compound = "CCCCCCn1cc[n+](C)c1.F[B-](F)(F)F [1-hexyl-3-methylimidazolium tetrafluoroborate]"
endpoint_result = "438.45 ± 6.8 J/K/mol"

[[record]]
compound = "CCn1cc[n+](C)c1.F[B-](F)(F)F [1-ethyl-3-methylimidazolium tetrafluoroborate]"
endpoint_result = "310.86 ± 4.8 J/K/mol"

[[record]]
compound = "CCCCn1cc[n+](C)c1.F[B-](F)(F)F [1-butyl-3-methylimidazolium tetrafluoroborate]"
endpoint_result = "373.03 ± 5.8 J/K/mol"


* * *

assay: molar heat capacity at constant pressure; details: 303.15 K; 100 kPa; Liquid; Small sample (50 mg) DSC
# molar heat capacity at constant pressure per record follows
Experimental Endpoint: molar heat capacity at constant pressure (J/K/mol)

[[record]]
compound = "CCCCn1cc[n+](C)c1.F[B-](F)(F)F [1-butyl-3-methylimidazolium tetrafluoroborate]"
endpoint_result = 368.3

[[record]]
compound = "CCn1cc[n+](C)c1.F[B-](F)(F)F [1-ethyl-3-methylimidazolium tetrafluoroborate]"
endpoint_result = 306.58

[[record]]
compound = "CCCCCCCC[n+]1ccn(C)c1.F[B-](F)(F)F [1-methyl-3-octylimidazolium tetrafluoroborate]"
endpoint_result = 503.51

[[record]]
compound = "CCCCCCn1cc[n+](C)c1.F[B-](F)(F)F [1-hexyl-3-methylimidazolium tetrafluoroborate]"
endpoint_result = 432.36


* * *

assay: molar heat capacity at constant pressure; conditions: 283.15 K; 30000 kPa; Liquid; Small sample (50 mg) DSC
Numbers after ± are expanded uncertainties.
This section presents compounds with their documented molar heat capacity at constant pressure values.
Experimental Endpoint: molar heat capacity at constant pressure

[[record]]
compound = "CCn1cc[n+](C)c1.F[B-](F)(F)F [1-ethyl-3-methylimidazolium tetrafluoroborate]"
endpoint_result = "300.6 ± 4.7 J/K/mol"

[[record]]
compound = "CCCCCCCC[n+]1ccn(C)c1.F[B-](F)(F)F [1-methyl-3-octylimidazolium tetrafluoroborate]"
endpoint_result = "489.25 ± 7.6 J/K/mol"

[[record]]
compound = "CCCCCCn1cc[n+](C)c1.F[B-](F)(F)F [1-hexyl-3-methylimidazolium tetrafluoroborate]"
endpoint_result = "423.41 ± 6.6 J/K/mol"

[[record]]
compound = "CCCCn1cc[n+](C)c1.F[B-](F)(F)F [1-butyl-3-methylimidazolium tetrafluoroborate]"
endpoint_result = "360.68 ± 5.6 J/K/mol"


* * *

Overview of recorded molar heat capacity at constant pressure for various molecules
test: molar heat capacity at constant pressure; conditions: 318.15 K; 2000 kPa; Liquid; Small sample (50 mg) DSC
± gives the expanded uncertainty stated by the source.
Experimental Endpoint: molar heat capacity at constant pressure

[[record]]
molecule = "CCn1cc[n+](C)c1.F[B-](F)(F)F [1-ethyl-3-methylimidazolium tetrafluoroborate]"
experimental_endpoint = "molar heat capacity at constant pressure"
endpoint_result = "312.2 ± 4.8 J/K/mol"

[[record]]
molecule = "CCCCCCn1cc[n+](C)c1.F[B-](F)(F)F [1-hexyl-3-methylimidazolium tetrafluoroborate]"
experimental_endpoint = "molar heat capacity at constant pressure"
endpoint_result = "440.72 ± 6.8 J/K/mol"

[[record]]
molecule = "CCCCn1cc[n+](C)c1.F[B-](F)(F)F [1-butyl-3-methylimidazolium tetrafluoroborate]"
experimental_endpoint = "molar heat capacity at constant pressure"
endpoint_result = "374.97 ± 5.8 J/K/mol"

[[record]]
molecule = "CCCCCCCC[n+]1ccn(C)c1.F[B-](F)(F)F [1-methyl-3-octylimidazolium tetrafluoroborate]"
experimental_endpoint = "molar heat capacity at constant pressure"
endpoint_result = "512 ± 7.9 J/K/mol"


* * *

assay: molar heat capacity at constant pressure; details: 308.15 K; 12000 kPa; Liquid; Small sample (50 mg) DSC
Numbers after ± are expanded uncertainties.
Experimental Endpoint: molar heat capacity at constant pressure

[[record]]
molecule = "CCCCCCCC[n+]1ccn(C)c1.F[B-](F)(F)F [1-methyl-3-octylimidazolium tetrafluoroborate]"
endpoint_result = "506.53 ± 7.8 J/K/mol"

[[record]]
molecule = "CCn1cc[n+](C)c1.F[B-](F)(F)F [1-ethyl-3-methylimidazolium tetrafluoroborate]"
endpoint_result = "308.55 ± 4.8 J/K/mol"

[[record]]
molecule = "CCCCCCn1cc[n+](C)c1.F[B-](F)(F)F [1-hexyl-3-methylimidazolium tetrafluoroborate]"
endpoint_result = "435.23 ± 6.7 J/K/mol"

[[record]]
molecule = "CCCCn1cc[n+](C)c1.F[B-](F)(F)F [1-butyl-3-methylimidazolium tetrafluoroborate]"
endpoint_result = "370.55 ± 5.7 J/K/mol"


* * *

experiment: molar heat capacity at constant pressure; conditions: 288.15 K; 14000 kPa; Liquid; Small sample (50 mg) DSC
Experimental Endpoint: molar heat capacity at constant pressure (J/K/mol)

[[record]]
molecule = "CCCCn1cc[n+](C)c1.F[B-](F)(F)F [1-butyl-3-methylimidazolium tetrafluoroborate]"
experimental_endpoint = "molar heat capacity at constant pressure"
endpoint_result = 362.34

[[record]]
molecule = "CCn1cc[n+](C)c1.F[B-](F)(F)F [1-ethyl-3-methylimidazolium tetrafluoroborate]"
experimental_endpoint = "molar heat capacity at constant pressure"
endpoint_result = 301.87

[[record]]
molecule = "CCCCCCCC[n+]1ccn(C)c1.F[B-](F)(F)F [1-methyl-3-octylimidazolium tetrafluoroborate]"
experimental_endpoint = "molar heat capacity at constant pressure"
endpoint_result = 493.11

[[record]]
molecule = "CCCCCCn1cc[n+](C)c1.F[B-](F)(F)F [1-hexyl-3-methylimidazolium tetrafluoroborate]"
experimental_endpoint = "molar heat capacity at constant pressure"
endpoint_result = 425.29


The measurements presented in this section are drawn from the NIST ThermoML archive (doi:10.1021/je9004992).
